src = ChEMBL document CHEMBL2016517

- Measured target: CDC7/DBF4 (Cell division cycle 7-related protein kinase/Activator of S phase kinase) (Homo sapiens, UniProt O00311)
- Sequence (Q9UBU7 whole entry): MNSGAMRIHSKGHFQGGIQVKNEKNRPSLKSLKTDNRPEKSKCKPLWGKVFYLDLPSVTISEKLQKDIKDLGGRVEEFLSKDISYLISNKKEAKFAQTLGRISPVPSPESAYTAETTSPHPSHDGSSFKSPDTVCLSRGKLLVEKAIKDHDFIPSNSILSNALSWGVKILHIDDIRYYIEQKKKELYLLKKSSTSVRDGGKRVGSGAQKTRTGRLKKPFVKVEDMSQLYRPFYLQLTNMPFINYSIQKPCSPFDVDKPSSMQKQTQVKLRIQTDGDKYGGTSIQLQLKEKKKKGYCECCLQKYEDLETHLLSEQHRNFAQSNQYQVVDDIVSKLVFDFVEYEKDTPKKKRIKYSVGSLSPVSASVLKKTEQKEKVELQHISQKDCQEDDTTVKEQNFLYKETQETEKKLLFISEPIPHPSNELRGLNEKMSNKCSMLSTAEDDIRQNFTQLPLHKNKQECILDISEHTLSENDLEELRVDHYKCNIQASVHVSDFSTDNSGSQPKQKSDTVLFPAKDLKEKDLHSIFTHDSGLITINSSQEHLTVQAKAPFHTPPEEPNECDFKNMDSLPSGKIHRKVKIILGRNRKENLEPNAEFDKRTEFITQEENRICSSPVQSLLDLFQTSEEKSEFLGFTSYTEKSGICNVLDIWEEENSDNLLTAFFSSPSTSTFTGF
- Sequence (O00311 whole entry): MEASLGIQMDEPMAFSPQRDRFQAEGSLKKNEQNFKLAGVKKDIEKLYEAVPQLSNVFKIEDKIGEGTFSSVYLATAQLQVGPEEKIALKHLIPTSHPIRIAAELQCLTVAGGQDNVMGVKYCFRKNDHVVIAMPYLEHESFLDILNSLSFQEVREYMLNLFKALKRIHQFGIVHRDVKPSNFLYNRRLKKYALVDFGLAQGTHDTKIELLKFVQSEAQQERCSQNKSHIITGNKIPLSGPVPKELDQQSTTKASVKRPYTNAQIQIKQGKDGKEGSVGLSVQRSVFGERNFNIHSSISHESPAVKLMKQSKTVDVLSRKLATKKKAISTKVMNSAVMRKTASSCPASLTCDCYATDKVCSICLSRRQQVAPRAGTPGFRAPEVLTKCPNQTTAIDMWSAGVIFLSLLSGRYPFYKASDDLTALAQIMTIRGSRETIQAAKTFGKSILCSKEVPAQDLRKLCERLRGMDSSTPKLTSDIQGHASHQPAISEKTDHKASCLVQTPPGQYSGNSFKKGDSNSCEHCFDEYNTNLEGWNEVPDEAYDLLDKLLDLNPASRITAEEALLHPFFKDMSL
- Experiment summary: Inhibition of CDC7/DBF4 using MCM-2 as substrate after 1 hr
// reported pIC50 per item
Remember the convention: pIC50 equals -log10 of concentration in molar.

| Cpd smiles | pIC50 |
| --- | --- |
| O=C1NCC2(CCCCC2)c2sc(-c3ncnc4[nH]cnc34)cc21 | 9.00 |
| CC(=O)Nc1cc(-c2cc3c(s2)C2(CCCCC2)CNC3=O)ccn1 | 7.39 |
| Nc1cc(-c2cc3c(s2)C2(CCCCC2)CCC3=O)ccn1 | 7.48 |
| O=C1CCC2(CCCCC2)c2sc(-c3ccncc3)cc21 | 8.05 |

# input for lookup
Q: // lookup pIC50 for Nc1cc(-c2cc3c(s2)C2(CCCCC2)CNC3=O)ccn1
A: 8.10
